The entries below come with measured pIC50 values attached.
experiment: Inhibition of Escherichia coli N-terminal His6-tagged DNA gyrase subunit GyrA/GyrB ATPase activity expressed in Escherichia coli BL21 (DE3) after 40 mins by spectrophotometric analysis
pIC50: −log10 of the molar value.

[
  {
    "SMILES_REPR": "CCNC(=O)Nc1cc2c(-c3ccc(C#N)cc3)ccc(C)c2cn1",
    "pIC50": "> 6.70"
  },
  {
    "SMILES_REPR": "CCNC(=O)Nc1cc2c(-c3cnn(C)c3)ccc(C)c2cn1.Cl",
    "pIC50": "> 6.70"
  },
  {
    "SMILES_REPR": "CCNC(=O)Nc1ncc2ccccc2n1",
    "pIC50": "< 3.70"
  },
  {
    "SMILES_REPR": "CCNC(=O)Nc1cc2c(-c3cncnc3)ccc(C)c2cn1",
    "pIC50": "> 6.70"
  },
  {
    "SMILES_REPR": "CCNC(=O)Nc1cc2c(-c3ccncn3)ccc(C)c2cn1",
    "pIC50": "> 6.70"
  },
  {
    "SMILES_REPR": "CCNC(=O)Nc1cc2c(-c3ccncc3)ccc(C)c2cn1",
    "pIC50": "> 6.70"
  },
  {
    "SMILES_REPR": "CCNC(=O)Nc1cc2c(-c3ccnc(C)c3)ccc(C)c2cn1",
    "pIC50": "> 6.70"
  },
  {
    "SMILES_REPR": "CCNC(=O)Nc1ccccn1",
    "pIC50": "< 3.70"
  },
  {
    "SMILES_REPR": "CCNC(=O)Nc1cc2c(-c3cccnc3)ccc(C)c2cn1",
    "pIC50": "> 6.70"
  },
  {
    "SMILES_REPR": "CCNC(=O)Nc1nccs1",
    "pIC50": "< 3.70"
  },
  {
    "SMILES_REPR": "CCNC(=O)Nc1nccc2ccccc12",
    "pIC50": "< 3.70"
  }
]

====

system: Staphylococcus aureus; assay: Antibacterial activity against methicillin/fluoroquinolone-resistant Staphylococcus aureus A-798 harboring topoisomerase gyrA S84L mutant/grlA S80F/Glu84V mutant by broth microdilution method; assay type: functional
ASSAY_READOUT: MIC

[
  {
    "SMILES_REPR": "CCNC(=O)Nc1cc2c(-c3ccnc(C)c3)ccc(Nc3ccc(C)nc3)c2cn1",
    "ASSAY_VALUE": "≤ 0.03 µg/mL"
  },
  {
    "SMILES_REPR": "O=C(O)c1cn(C2CC2)c2cc(N3CCNCC3)c(F)cc2c1=O",
    "ASSAY_VALUE": "> 16 µg/mL"
  },
  {
    "SMILES_REPR": "C#CCOC(=O)NCc1ccc(-c2ccnc(C)c2)c2cc(NC(=O)NCC)ncc12",
    "ASSAY_VALUE": "≤ 0.03 µg/mL"
  }
]

====

test system: Staphylococcus aureus; assay: Antibacterial activity against Staphylococcus aureus ATCC 29213 by broth microdilution method; assay type: functional
ASSAY_READOUT: MIC

[
  {
    "SMILES_REPR": "CCNC(=O)Nc1cc2c(-c3ccnc(C)c3)ccc(Nc3ccc(C)nc3)c2cn1",
    "ASSAY_VALUE": "≤ 0.03 µg/mL"
  },
  {
    "SMILES_REPR": "CCNC(=O)Nc1cc2c(-c3cccnc3)cccc2cn1",
    "ASSAY_VALUE": "> 32 µg/mL"
  },
  {
    "SMILES_REPR": "CCNC(=O)Nc1cc2c(-c3ccncc3)ccc(-c3cccnc3)c2cn1",
    "ASSAY_VALUE": "> 16 µg/mL"
  },
  {
    "SMILES_REPR": "CCNC(=O)Nc1cc2c(-c3cncnc3)ccc(C)c2cn1",
    "ASSAY_VALUE": "> 32 µg/mL"
  },
  {
    "SMILES_REPR": "CCNC(=O)Nc1cc2ccccc2cn1",
    "ASSAY_VALUE": "> 32 µg/mL"
  }
]
